Data origin, for the record: patent US6110963A

Target: Human recombinant PTP1B (hPTP1B) (Homo sapiens, UniProt P18031)
Settings: recombinant PTP1B, malachite green phosphate detection
Collected pIC50 values appear next to each entry.
// scale note: pIC50 = -log10(conc_M); give the bare number

Worked examples, 4 molecules total:
CCCCc1oc2ccccc2c1C(=O)c1nc(Br)c(-c2ccc(OC)cc2)o1    5.87
CCCCc1oc2ccccc2c1Cc1ccc2c(I)c(O)ccc2c1    6.51
CCCCc1oc2cc(Br)ccc2c1Cc1nc(Br)c(-c2ccc(OC)cc2)o1    5.91
CCCCc1oc2ccccc2c1Cc1ccc2c(Br)c(O)ccc2c1    6.48

Kindly review the next molecule as well.
Enter reported pIC50 observed with Human recombinant PTP1B (hPTP1B) (Homo sapiens, UniProt P18031) for CCCCc1oc2ccccc2c1Cc1ccc(-c2ccc(OCC(=O)O)cc2)cc1
5.94

###

Biological target: Human recombinant PTP1B (hPTP1B) (Homo sapiens)
Settings: recombinant PTP1B, malachite green phosphate detection
READOUT_LABEL: pIC50
Quick note: pIC50 means taking -log10 of the concentration in moles per liter.

CCCCc1oc2ccccc2c1C(Sc1nc2ccccc2s1)c1ccc2cc(O)ccc2c1 (stereo not drawn)    6.00

Could you tell me which pIC50 is on file for CCCCc1oc2ccccc2c1Cc1ccc2c(Br)c(OCc3nnn[nH]3)ccc2c1 ?
6.15

Which pIC50 value belongs to CCCCc1oc2ccccc2c1C(Sc1nc2ccccc2s1)c1ccc(Br)c2ccccc12 (stereo not drawn) ?
6.23

###

Catalogue of compounds with associated % Change from Control
System: rat hepatic microsomal PTPases
Settings: PTPase activity, compound at 50 μM, rat liver microsomes
Please respond with the number in % and leave the unit unwritten.

Completed entries (count: 5):
CCCCc1oc2ccccc2c1Cc1ccc(-c2ccc(O)cc2)cc1 [Example 16]    -28
CCCCc1oc2ccccc2c1C(=O)c1ccc2c(Br)c(OCc3nnn[nH]3)ccc2c1 [Example 12]    -70
CCCCc1oc2ccccc2c1Cc1ccc2c(I)c(O)ccc2c1 [Example 7]    -24
CCCCc1oc2ccccc2c1Cc1ccc2cc(O)ccc2c1 [Example 2]    -37
CCCCc1oc2ccccc2c1Cc1ccc2c(Br)c(OCc3nnn[nH]3)ccc2c1 [Example 6]    -62

Look up % Change from Control: CCCCc1oc2ccccc2c1C(=O)c1ccc2c(Br)c(OCC(=O)O)ccc2c1 [Example 10]
-69

Request the reported % Change from Control associated with CCCCc1oc2ccccc2c1Cc1ccc2c(Br)c(OCC(=O)O)ccc2c1 [Example 4]
-65

###

Quick reference for inhibition at 2.5 µM among some compounds
Molecular target: Human recombinant PTP1B (hPTP1B) (Homo sapiens)
Construct: made in house
Assay type: biochemical
Conditions: compound at 2.5 uM; read-out: change of PTP1B activity (percent of phosphatase control) at single concentration

Here are 3 compounds together with their reported answers.
CCCCc1oc2ccccc2c1C(=O)c1ncc(-c2ccc(OC)cc2)o1    55%
CCCCc1oc2ccccc2c1C(=O)c1ccc2c(Br)c(OCC(=O)O)ccc2c1    46%
Oc1ccc(-c2ccc(C(O)c3c(Cc4ccccc4)sc4ccccc34)cc2)cc1 (stereo not shown)    36%

As a next step, examine the compound that follows.
Record request: inhibition at 2.5 µM value, item CCCCc1oc2ccccc2c1Cc1ncc(-c2ccc(OC)cc2)o1
35%

###

Target: Human recombinant PTP1B (hPTP1B) (Homo sapiens)
Sequence (P18031 1-435): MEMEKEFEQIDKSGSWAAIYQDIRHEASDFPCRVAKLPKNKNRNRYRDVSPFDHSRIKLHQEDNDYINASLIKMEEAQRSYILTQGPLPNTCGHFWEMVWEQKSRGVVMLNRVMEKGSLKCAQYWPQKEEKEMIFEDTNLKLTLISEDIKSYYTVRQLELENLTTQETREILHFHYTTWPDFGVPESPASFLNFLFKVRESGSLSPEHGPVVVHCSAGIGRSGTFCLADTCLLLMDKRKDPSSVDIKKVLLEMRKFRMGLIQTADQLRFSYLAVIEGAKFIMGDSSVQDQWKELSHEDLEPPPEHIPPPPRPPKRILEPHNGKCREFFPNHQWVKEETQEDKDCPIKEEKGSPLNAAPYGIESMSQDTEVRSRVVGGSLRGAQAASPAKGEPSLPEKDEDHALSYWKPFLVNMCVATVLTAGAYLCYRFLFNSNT
Settings: recombinant PTP1B, malachite green phosphate detection
READOUT_LABEL: pIC50
Formally, pIC50 is defined as -log10 of the concentration c, with c in mol/L.

Look over these answered cases.
CCCCc1oc2ccccc2c1C(O)c1ccc(-c2cc(Br)c(O)c(Br)c2)cc1 (stereo not drawn)    5.85
CCCCc1oc2ccccc2c1Cc1ccc2c(Br)c(OC(Cc3ccccc3)C(=O)O)ccc2c1 (stereo not drawn)    6.43
CCCCc1oc2ccccc2c1Cc1ccc2c(Br)c(OCC(=O)O)ccc2c1    5.84
Oc1ccc2cc(Cc3c(Cc4ccccc4)sc4ccccc34)ccc2c1Br    5.98
CCCCc1oc2ccccc2c1Cc1ccc2c(I)c(OC(Cc3ccccc3)C(=O)O)ccc2c1 (stereo not drawn)    6.51
CCCCc1oc2ccccc2c1C(Sc1nc2ccccc2s1)c1ccc(Br)cc1 (stereo not drawn)    6.24
CCCCCCCC(Sc1nc2ccccc2s1)c1cc2ccccc2s1 (stereo not drawn)    5.73
CCCCc1oc2ccccc2c1Cc1ccc(-c2ccc(O)cc2)cc1    5.92

Returns the measured pIC50 for the input molecule. Input: CCCCc1oc2ccccc2c1C(=O)c1ccc2c(Br)c(OC(Cc3ccccc3)C(=O)O)ccc2c1 (stereo not drawn)
5.91
